system: SF-539 CNS; assay: NCI tumour cell line growth inhibition, 48 h
OBSERVABLE: log10(TGI) (log10 of the value in µM)
The common logarithm of TGI in µM is what is listed.

# count of solved cases: 3
- MOLECULE: "CC(OC1CC(=O)CC2C(=O)C=CC(=O)C12)c1ccccc1 (stereo unspecified)"
  log10(TGI): 1.54
- MOLECULE: "Cc1cc(Nc2cc(CN3CCOCC3)c3nc(C)c(Cc4ccc(Cl)cc4F)n3n2)n[nH]1"
  log10(TGI): 0.51
- MOLECULE: "O=Nc1ccc(O)c2ncccc12"
  log10(TGI): 0.70

For each entry beneath this line, provide reported log10(TGI).
1. Cc1ccc(P(c2ccc(C)cc2)c2ccc(C)cc2)cc1
2. O=C(N[C@@H]1C=CCC[C@@H]1c1ccccc1)OCc1ccccc1

**A:**
1. 1.58
2. 1.53

* * *

test system: ACHN renal; assay: NCI tumour cell line growth inhibition, 48 h
OBSERVABLE: TGI (µM)
Give bare numbers, in µM.

Consider the reported TGI for these compounds:
- COMPOUND: "CN(C)c1ccc(/C=C/c2ccnc3ccc4ccccc4c23)cc1"
  UNITS: "µM"
  TGI: 57.3
- COMPOUND: "CN(C)C(=S)/N=c1\\ssc(=S)n1-c1ccccc1"
  UNITS: "µM"
  TGI: 32.1
- COMPOUND: "CC(OC1CC(=O)CC2C(=O)C=CC(=O)C12)c1ccccc1 (stereo unspecified)"
  UNITS: "µM"
  TGI: 24.1

From here, focus on the item given below.
**Q:** // fetch TGI given entry Cc1cc(Nc2cc(CN3CCOCC3)c3nc(C)c(Cc4ccc(Cl)cc4F)n3n2)n[nH]1
**A:** 10.9

* * *

tested on: U251 CNS; assay: NCI tumour cell line growth inhibition, 48 h
Classify by measured TGI: condition met if it is equal to or exceeds 20 µM, condition not met if it is smaller.

- COMPOUND: "O=C1NC2(CCCC2)/C(=N\\O)C12CCCC2"
  TARGET_OR_SYSTEM: "U251 CNS"
  ASSIGNED_LABEL: "condition met"
- COMPOUND: "Cc1cc(O)c(C2=NN(c3ccc(S(N)(=O)=O)cc3)C(c3ccccc3O)C2)cc1Cl (centres undefined)"
  TARGET_OR_SYSTEM: "U251 CNS"
  ASSIGNED_LABEL: "condition not met"

**Q:** Hi team, for N#C/C(=C\c1ccc(F)cc1)c1nc2ccccc2c(=O)[nH]1 , is the recorded TGI at or above 20 µM?
**A:** condition met

**Q:** Please indicate if the recorded TGI for C=C1CC23CCC4C(C)(C(=O)O)CCCC4(C)C2CCC1C3 (centres undefined) meets or exceeds 20 µM.
**A:** condition met

**Q:** Given COc1cc(OC)cc(-n2c(N)c(-c3nc4ccccc4s3)c3ccc([N+](=O)[O-])cc3c2=O)c1 , state whether its TGI is at least 20 µM.
**A:** condition met

**Q:** Evaluate COC(=O)/C=C\[C@@H]1[C@H](C)N1S(=O)(=O)c1ccc(C)cc1 (some centres undefined) : TGI at minimum 20 µM?
**A:** condition met

**Q:** Record CCOC(=O)/C(=C/c1ccccc1)C(=O)c1ccccc1 ; criterion: TGI no lower than 20 µM. Met?
**A:** condition not met

**Q:** Determine whether measured TGI meets or exceeds 20 µM for COc1cc(CNc2nc3ccccc3n2Cc2ccccc2)cc(CN2CCOCC2)c1O
**A:** condition met

**Q:** Does the reported TGI for Cc1ccc(S(=O)(=O)NC(=O)NC(C(=O)O)C(C)O)cc1 (centres undefined) fall at or above the 20 µM mark?
**A:** condition met

**Q:** Can CN(C)Cc1cc(C(=O)/C=C/c2ccc(Br)cc2)cc(CN(C)C)c1O be said to have TGI at or above 20 µM?
**A:** condition met

**Q:** Does TGI meet or surpass 20 µM for CC(NC1=NCCO1)c1cccs1 (centres undefined) ?
**A:** condition met

**Q:** Record COc1ccc(S(=O)(=O)NC2=NCCN2C(=S)SN2CCn3c2nsc3=S)cc1OC ; criterion: TGI no lower than 20 µM. Met?
**A:** condition met

**Q:** # check: TGI of O=S(=O)(O)c1cc(N=Nc2cc(S(=O)(=O)O)c3ccccc3c2O)ccc1/C=C/c1ccc(N=Nc2cc(S(=O)(=O)O)c3ccccc3c2O)cc1S(=O)(=O)O is greater than or equal to 20 µM
**A:** condition met

**Q:** Hi, just wondering whether COc1cc(/C=C/C(=O)NC[C@]2(O)CCC3C4CCc5cc(O)ccc5C4CCC32C)ccc1O (some centres undefined) shows TGI of 20 µM or higher.
**A:** condition met

**Q:** Quick check: does CCc1cccc(CC)c1Nc1nc2c(s1)C(=O)c1ccccc1C2=O have TGI greater than or equal to 20 µM?
**A:** condition met

**Q:** For this compound, is measured TGI 20 µM or higher? Nc1nc(N)c2ncn(-c3ccc(Cl)c(Cl)c3)c2n1
**A:** condition met

**Q:** Can COc1ccc2c(O)c(/C=C3\N=Nc4ncccc43)oc2c1C[C@H]1CCNC[C@H]1F be said to have TGI at or above 20 µM?
**A:** condition not met
